- Assay target: CD73 activity in MDA-MB-231-GFP cells (Homo sapiens, UniProt P21589)
- Construct: endogenous in cells; host or cells: MDA-MB-231-GFP cells
- Sequence (P21589 27-549): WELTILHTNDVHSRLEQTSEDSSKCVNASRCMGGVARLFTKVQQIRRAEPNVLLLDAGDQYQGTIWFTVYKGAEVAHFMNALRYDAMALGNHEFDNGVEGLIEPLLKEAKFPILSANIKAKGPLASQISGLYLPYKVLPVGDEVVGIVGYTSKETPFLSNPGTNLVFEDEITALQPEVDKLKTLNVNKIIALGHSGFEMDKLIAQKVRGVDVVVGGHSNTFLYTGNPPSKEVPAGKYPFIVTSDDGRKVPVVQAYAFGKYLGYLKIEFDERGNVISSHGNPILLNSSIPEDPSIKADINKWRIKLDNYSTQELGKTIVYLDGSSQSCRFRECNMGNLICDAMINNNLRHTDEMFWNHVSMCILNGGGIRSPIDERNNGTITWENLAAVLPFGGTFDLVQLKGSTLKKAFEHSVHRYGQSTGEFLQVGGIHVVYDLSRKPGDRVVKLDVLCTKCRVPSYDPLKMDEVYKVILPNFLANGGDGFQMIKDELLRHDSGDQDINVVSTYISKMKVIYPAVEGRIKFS
- Method notes: MDA-MB-231 Cell Based CD73 Activity Assay (DMEM)
- Protocol conditions: 3000 cells per well, DMEM medium with 10% human plasma, overnight compound treatment, AMP 200 uM
Please assign no whenever EC50 is at or above 20 nM, and yes whenever it is below.

Item O=C(c1ccc([C@H]2C[C@@H]2c2cc(-c3c[nH]c(=O)[nH]c3=O)nn3c(F)cnc23)cc1)N1CC(F)(F)C1 (single isomer, unassigned) : EC50 beneath 20 nM, strictly?
yes

Please let me know if O=c1[nH]cc(-c2cc([C@H]3C[C@@H]3c3cnn(C(F)F)c3)c3ncc(F)n3n2)c(=O)[nH]1 (racemic) [Example 370] shows EC50 below 20 nM.
yes

Decide: EC50 of O=C(c1cccc([C@H]2C[C@@H]2c2cc(-c3c[nH]c(=O)[nH]c3=O)nn3ccnc23)c1)N1C[C@@H](F)[C@@H](F)C1 (racemic) strictly below 20 nM?
yes

Please determine if O=c1[nH]cc(-c2cc([C@H]3C[C@@H]3c3ccnc(C(F)(F)F)n3)c3nccn3n2)c(=O)[nH]1 (racemic) is below 20 nM in terms of EC50.
no

Decide: EC50 of O=C(c1ccc([C@H]2C[C@@H]2c2cc(-c3c[nH]c(=O)[nH]c3=O)nn3ccnc23)cc1)N1C[C@@H](F)[C@@H](F)C1 (racemic) strictly below 20 nM?
yes

Problem: For the compound O=C1N(CC(F)(F)F)c2cc([C@H]3C[C@@H]3c3cc(-c4c[nH]c(=O)[nH]c4=O)nn4c(Cl)c(Cl)nc34)ccc2C12CC2 (single isomer, unassigned) , is EC50 under 20 nM?
yes

Dear colleague, could you confirm whether EC50 of CC1(C)CCN(C(=O)c2cccc([C@H]3C[C@@H]3c3cc(-c4c[nH]c(=O)[nH]c4=O)nn4ccnc34)c2)C1 (racemic) falls below 20 nM? Thanks.
yes

---

Some compounds, each annotated with its measured EC50.
- Assay target: CD73 activity in MDA-MB-231-GFP cells (Homo sapiens, UniProt P21589)
- Construct: endogenous in cells; host or cells: MDA-MB-231-GFP cells
- Method notes: MDA-MB-231 Cell Based CD73 Activity Assay
- Protocol conditions: 10000 cells per well, RPMI medium with 10% human plasma, overnight compound treatment, AMP 200 μM
// note: answer is a bare numeric in nM

Record COc1ccc([C@H]2C[C@@H]2c2cc(-c3c[nH]c(=O)[nH]c3=O)nn3ccnc23)cc1 has CD73 activity in MDA-MB-231-GFP cells (Homo sapiens, UniProt P21589) EC50 equal to 2.23

Item N#Cc1cccc([C@H]2C[C@@H]2c2cc(-c3c[nH]c(=O)[nH]c3=O)nn3ccnc23)c1 ; assay system CD73 activity in MDA-MB-231-GFP cells (Homo sapiens, UniProt P21589); EC50 reported as 2.45

CD73 activity in MDA-MB-231-GFP cells (Homo sapiens, UniProt P21589) data for COc1cccc([C@H]2C[C@@H]2c2cc(-c3c[nH]c(=O)[nH]c3=O)nn3ccnc23)c1 ; its EC50: 5.38

Reference source: patent US12110294B2
